Listed below: bioavailability values for each entry.
test: Rodent pharmacokinetics (rat PK); format: in vivo; conditions: po, dosed intravenously or orally by gavage, plasma, read-out: F % (bioavailability)
measure: bioavailability

[[record]]
compound = "Cc1cc2nn([C@H]3CC[C@H](CN4CC[C@@H](c5cccc6c5n(C)c(=O)n6C5CCC(=O)NC5=O)[C@H](F)C4)CC3)cc2cc1NC(=O)c1cncc(C#N)c1 (stereo partly drawn)"
measure = "bioavailability"
recorded_value = "≤ 5%"

[[record]]
compound = "COc1ccc2c(c1[C@H]1CCN(C[C@H]3CC[C@H](n4cc5cc(NC(=O)c6cncc(C(F)(F)F)n6)ccc5n4)CC3)CC1(F)F)n(C)c(=O)n2C1CCC(=O)NC1=O (single isomer, unassigned)"
measure = "bioavailability"
recorded_value = "≥ 5%"

[[record]]
compound = "Cn1c(=O)n(C2CCC(=O)NC2=O)c2ccc(F)c([C@H]3CCN(C[C@H]4CC[C@H](n5cc6cc(NC(=O)c7cncc(C(F)(F)F)n7)ccc6n5)CC4)C[C@@H]3F)c21 (single isomer, unassigned)"
measure = "bioavailability"
recorded_value = "≥ 5%"

[[record]]
compound = "O=C1CCC(n2c(=O)oc3c([C@@H]4CCN(C[C@H]5CC[C@H](n6cc7cc(NC(=O)c8cncc(C(F)(F)F)n8)ccc7n6)CC5)C[C@H]4F)cccc32)C(=O)N1 (single isomer, unassigned)"
measure = "bioavailability"
recorded_value = "≤ 5%"

[[record]]
compound = "Cn1c(=O)n(C2CCC(=O)NC2=O)c2cccc([C@@H]3CCN(C[C@H]4CC[C@H](n5cc6cc(NC(=O)c7cncc(C(F)(F)F)n7)ccc6n5)CC4)C[C@H]3F)c21 (single isomer, unassigned)"
measure = "bioavailability"
recorded_value = "≤ 5%"

[[record]]
compound = "Cn1c(=O)n(C2CCC(=O)NC2=O)c2cccc([C@@H]3CCN(C[C@H]4CC[C@H](n5cc6cc(NC(=O)c7cncc(C#N)c7)c(C(C)(C)O)cc6n5)CC4)CC3(F)F)c21 (single isomer, unassigned)"
measure = "bioavailability"
recorded_value = "≤ 5%"

[[record]]
compound = "Cn1c(=O)n(C2CCC(=O)NC2=O)c2cccc([C@@H]3CCN(C[C@H]4CC[C@H](c5nc6cc(C(C)(C)O)c(NC(=O)c7cncc(C#N)c7)cc6o5)CC4)C[C@H]3F)c21 (stereo partly drawn)"
measure = "bioavailability"
recorded_value = "≤ 5%"

[[record]]
compound = "Cn1nc(C2CCC(=O)NC2=O)c2cccc(N3CCC4(CCN(C[C@H]5CC[C@H](n6cc7cc(NC(=O)c8cncc(C#N)c8)c(C(C)(C)O)cc7n6)CC5)CC4(F)F)CC3)c21 (stereo partly drawn)"
measure = "bioavailability"
recorded_value = "≤ 5%"

[[record]]
compound = "CN(C[C@H]1CC[C@H](c2nc3cc(C(C)(C)O)c(NC(=O)c4cncc(C(F)(F)F)c4)cc3s2)CC1)[C@@H]1CCN(c2cccc3c2n(C)c(=O)n3C2CCC(=O)NC2=O)C[C@@H]1F (single isomer, unassigned)"
measure = "bioavailability"
recorded_value = "≥ 5%"

